Hello, the source for this data is patent US20150203579A1, in case you need it.

Target: T1, recombinant cynomolgus monkey PD-1 expressed with a C-terminal myc-myc-hexahistidine tag (cynomolgus monkey (Macaca fascicularis))
T1 construct: monomeric; also called MfPD-1-MMH
T1 chain: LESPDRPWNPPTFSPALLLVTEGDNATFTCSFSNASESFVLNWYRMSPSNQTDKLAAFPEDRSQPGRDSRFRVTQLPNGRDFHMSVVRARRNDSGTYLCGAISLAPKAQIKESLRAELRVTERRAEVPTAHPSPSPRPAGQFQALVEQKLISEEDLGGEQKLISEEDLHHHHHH
Test: SPR, mAb captured, 25C;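 further: rates from fitting Biacore data for PD-1 binding to anti-PD-1 antibodies with a 1:1 model, KD computed as koff/kon and t½ as ln2/(60·koff)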
Below, each entry is listed alongside its reported Kd.
Reported endpoint: Kd (nM)

INSERT INTO assay_data (binder, reported_endpoint, unit_info, result) VALUES
  ('H4H7798N (antibody, human IgG4 S228P, kappa, V domains shown) VH: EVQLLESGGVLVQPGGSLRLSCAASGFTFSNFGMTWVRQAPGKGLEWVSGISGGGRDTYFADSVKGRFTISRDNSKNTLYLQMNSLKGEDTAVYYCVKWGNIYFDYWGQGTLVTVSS VL: DIQMTQSPSSLSASVGDSITITCRASLSINTFLNWYQQKPGKAPNLLIYAASSLHGGVPSRFSGSGSGTDFTLTIRTLQPEDFATYYCQQSSNTPFTFGPGTVVDFRR', 'Kd', 'nM', 3.86),
  ('H2aM7798N (antibody, mouse IgG2a, V domains shown, Human variable regions, mouse IgG2a Fc; also called H2M7798N) VH: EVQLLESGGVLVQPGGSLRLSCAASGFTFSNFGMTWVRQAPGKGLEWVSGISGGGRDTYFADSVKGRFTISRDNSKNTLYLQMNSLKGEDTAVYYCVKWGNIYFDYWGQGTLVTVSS VL: DIQMTQSPSSLSASVGDSITITCRASLSINTFLNWYQQKPGKAPNLLIYAASSLHGGVPSRFSGSGSGTDFTLTIRTLQPEDFATYYCQQSSNTPFTFGPGTVVDFR', 'Kd', 'nM', 4.5),
  ('H2aM7791N (antibody, mouse IgG2a, V domains shown, Human variable regions, mouse IgG2a Fc; also called H2M7791N) VH: QMQLQQWGAGLLKPSETLSLTCVVYGGSLNGYYWSWIRQSPGKGLEWIGEIDHSGSTNYNPSLKNRVTMSVDTSKIQFSLKLTSVTVADTAVYYCAREGLLPFDYWGQGTLVTVSS VL: EIVLTQSPGTLSLSPGERVTLSCRASQSVYSNYLAWYQQNPGQAPRLLIYAASNRATGIPDRFSGSGSGTDFTLTISRLEPEDFAVYYCHQYATSPWTFGQGTKVEIK', 'Kd', 'nM', 34.4);
